The measurements presented in this section are drawn from patent US8268862B2.

Biological target: SIRT1 (Homo sapiens)
Test: mass spectrometry based SIRT1 deacetylation assay (activation)
Assay type: biochemical
Settings: 0.5 μM peptide substrate, 120 μM βNAD+, 10 nM SIRT1, 25 min at 25° C.; read-out: % FOLD ACT. (percent maximum fold activation of SIRT1)
parameter: Emax (%)

A selection of reference data follows.
COCCN1CCN(Cc2cnc3sc(-c4ccccc4NC(=O)c4cccc(-c5ccncc5)c4)nc3c2)CC1 [Compound 59]    279
Cc1nc(-c2cccnc2)sc1C(=O)Nc1ccccc1-c1nc2cc(CN3CC[C@@H](N)C3)cnc2s1 [Compound 79]    240

A = O=C(Nc1ccccc1-c1nc2cc(CN3CCOCC3)cnc2s1)c1nc2ccccc2o1 [Compound 98]
B = O=C(Nc1ccccc1-c1nc2cc(CN3CC[C@H](F)C3)cnc2s1)c1ccc2ccccc2n1 [Compound 100]
**Q:** Endpoint returns whichever of A and B has the numerically higher Emax. Your choice should be expressed through its label.
**A:** B

a = O=C(Nc1ccccc1-c1nc2cc(CN3CCCC3)cnc2s1)c1ccc2ccccc2n1 [Compound 95]
b = O=C(Nc1ccccc1-c1nc2cc(CN3CCOCC3)cnc2s1)c1cn2cccnc2n1 [Compound 112]
**Q:** Between the entries labeled a and b , whose measured Emax is lower? Your answer should be the label attached to the chosen record.
**A:** a
(a: 252%, b: 375%)

a = COCCN1CCN(Cc2cnc3sc(-c4ccccc4NC(=O)c4cccc(-c5ccc(Cl)cc5)n4)nc3c2)CC1 [Compound 137]
b = O=C(Nc1ccccc1-c1nc2cc(CN3CC[C@@H](F)C3)cnc2s1)c1cccc(-c2cccnc2)c1 [Compound 27]
c = O=C(Nc1ccccc1-c1nc2cc(CN3CCOCC3)cnc2s1)c1cccc(-c2cccnc2)c1 [Compound 5]
d = NC1CCN(Cc2cnc3sc(-c4ccccc4NC(=O)c4cccc(-c5ccccn5)c4)nc3c2)CC1 [Compound 21]
**Q:** Thanks in advance: please rank these 4 entries by Emax, highest to lowest. Reply with the item labels sorted in the order that was asked for.
**A:** d, a, c, b
(d: 906%, a: 448%, c: 281%, b: 185%)

a = O=C(Nc1ccccc1-c1nc2cc(CN3CCCC3)cnc2s1)c1cccc(-c2ccccc2)n1 [Compound 60]
b = O=C(Nc1ccccc1-c1nc2cc(CN3CCOCC3)cnc2s1)c1cccc2ccccc12 [Compound 97]
**Q:** Of a and b , whose reported Emax is numerically smaller? Pick one; state its label.
**A:** b

* * *

Target: UniProt Q96EB6
Sequence (Q96EB6 1-747): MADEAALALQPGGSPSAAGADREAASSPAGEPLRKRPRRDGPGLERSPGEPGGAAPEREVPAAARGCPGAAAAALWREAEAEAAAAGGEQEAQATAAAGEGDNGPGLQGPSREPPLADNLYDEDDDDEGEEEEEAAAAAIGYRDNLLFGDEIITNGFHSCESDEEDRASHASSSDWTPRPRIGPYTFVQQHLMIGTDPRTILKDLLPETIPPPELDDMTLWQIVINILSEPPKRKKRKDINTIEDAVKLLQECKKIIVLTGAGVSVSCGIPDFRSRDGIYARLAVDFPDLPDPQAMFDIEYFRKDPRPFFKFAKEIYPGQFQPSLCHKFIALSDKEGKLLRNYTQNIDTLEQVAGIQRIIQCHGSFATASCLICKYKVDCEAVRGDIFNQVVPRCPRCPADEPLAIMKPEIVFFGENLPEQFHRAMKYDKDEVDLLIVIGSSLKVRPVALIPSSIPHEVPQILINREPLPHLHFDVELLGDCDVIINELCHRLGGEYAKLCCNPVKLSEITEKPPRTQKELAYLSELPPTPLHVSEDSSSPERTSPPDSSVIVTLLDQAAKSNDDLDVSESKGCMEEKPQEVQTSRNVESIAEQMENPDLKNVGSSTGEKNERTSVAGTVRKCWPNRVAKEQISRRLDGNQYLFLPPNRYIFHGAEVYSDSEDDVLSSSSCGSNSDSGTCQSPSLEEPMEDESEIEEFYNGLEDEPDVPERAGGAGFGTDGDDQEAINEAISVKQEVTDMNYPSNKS
Assay: mass spectrometry based SIRT1 deacetylation assay (activation)
Type: biochemical
Conditions: 0.5 μM peptide substrate, 120 μM βNAD+, 10 nM SIRT1, 25 min at 25° C.; NA = not active in the assay
parameter: EC1.5 (concentration of test compound that results in 150% activation of SIRT1) (NM)

Consider the worked cases shown below.
O=C(Nc1ccccc1-c1nc2cc(CN3CCOCC3)cnc2s1)c1cccc(-c2ccccc2)c1 [Compound 1]    233
O=C(Nc1ccccc1-c1nc2cc(CN3CCNCC3)cnc2s1)c1cn2cc(F)ccc2n1 [Compound 124]    1060
O=C(Nc1ccccc1-c1nc2cc(CN3CC[C@@H](F)C3)cnc2s1)c1cccc(-c2cccnc2)c1 [Compound 27]    913

P = O=C(Nc1ccccc1-c1nc2cc(CN3CCOCC3)cnc2s1)c1cccc(-c2cccc(F)c2)c1 [Compound 49]
Q = COCCN1CCN(Cc2cnc3sc(-c4ccccc4NC(=O)c4cccc(-c5ccccc5)c4)nc3c2)CC1 [Compound 33]
R = COCCN1CCN(Cc2cnc3sc(-c4ccccc4NC(=O)c4cnc5ccccc5n4)nc3c2)CC1 [Compound 130]
S = NC1CCN(Cc2cnc3sc(-c4ccccc4NC(=O)c4cccc(-c5cccnc5)c4)nc3c2)CC1 [Compound 18]
**Q:** rank_up(items): orders items by reported EC1.5 (concentration of test compound that results in 150% activation of SIRT1) in ascending numerical order. Would you mind listing the labels in the order asked for?
**A:** Q, P, S, R
(Q: 91 NM, P: 319 NM, S: 620 NM, R: 990 NM)

* * *

Biological target: SIRT1 (Homo sapiens)
Sequence (Q96EB6 1-747): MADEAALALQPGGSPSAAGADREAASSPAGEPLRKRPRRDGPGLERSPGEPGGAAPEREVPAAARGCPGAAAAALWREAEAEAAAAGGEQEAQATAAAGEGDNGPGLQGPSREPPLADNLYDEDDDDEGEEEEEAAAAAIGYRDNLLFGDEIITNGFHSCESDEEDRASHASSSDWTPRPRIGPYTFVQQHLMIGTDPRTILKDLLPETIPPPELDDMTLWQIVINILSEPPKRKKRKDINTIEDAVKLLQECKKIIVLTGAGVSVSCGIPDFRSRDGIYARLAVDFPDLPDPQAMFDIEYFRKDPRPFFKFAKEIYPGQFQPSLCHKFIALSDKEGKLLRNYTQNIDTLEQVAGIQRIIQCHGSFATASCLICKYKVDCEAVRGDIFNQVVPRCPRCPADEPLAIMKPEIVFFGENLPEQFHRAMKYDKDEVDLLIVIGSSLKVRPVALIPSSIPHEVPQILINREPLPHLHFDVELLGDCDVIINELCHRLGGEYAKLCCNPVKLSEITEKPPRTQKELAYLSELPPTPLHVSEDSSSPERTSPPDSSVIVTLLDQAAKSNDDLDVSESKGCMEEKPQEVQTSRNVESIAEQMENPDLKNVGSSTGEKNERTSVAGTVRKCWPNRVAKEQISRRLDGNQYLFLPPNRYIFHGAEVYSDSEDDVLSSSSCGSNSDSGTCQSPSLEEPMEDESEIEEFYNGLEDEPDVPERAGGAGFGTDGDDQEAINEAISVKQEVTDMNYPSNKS
Test: mass spectrometry based SIRT1 deacetylation assay (activation)
Assay type: biochemical
Settings: 0.5 μM peptide substrate, 120 μM βNAD+, 10 nM SIRT1, 25 min at 25° C.; NA = not active in the assay
parameter: EC1.5 (concentration of test compound that results in 150% activation of SIRT1) (NM)

Examples with their reported EC1.5 (concentration of test compound that results in 150% activation of SIRT1) follow.
O=C(Nc1ccccc1-c1nc2cc(CN3CC[C@@H](F)C3)cnc2s1)c1cccc(-c2ccccc2)c1    469
C[C@@H]1CN(Cc2cnc3sc(-c4ccccc4NC(=O)c4cccc(-c5ccccn5)c4)nc3c2)C[C@H](C)N1    627
COCCN1CCN(Cc2cnc3sc(-c4ccccc4NC(=O)c4cccc(-c5cccc(C(F)(F)F)c5)n4)nc3c2)CC1    41
CN1CCN(Cc2cnc3sc(-c4ccccc4NC(=O)c4ccc5ccccc5n4)nc3c2)CC1    190
O=C(Nc1ccccc1-c1nc2cc(CN3CCNCC3)cnc2s1)c1ccnc(-c2ccccc2)n1    2970
Cc1c(C(=O)Nc2ccccc2-c2nc3cc(CN4CCNCC4)cnc3s2)oc2ccccc12    235
O=C(Nc1ccccc1-c1nc2cc(CN[C@H]3CC[C@H](O)CC3)cnc2s1)c1ccc2ccccc2n1    480
Cc1nc(-c2cccnc2)sc1C(=O)Nc1ccccc1-c1nc2cc(CN3CC[C@@H](N)C3)cnc2s1    1220

a = O=C(Nc1ccccc1-c1nc2cc(CN3CCNCC3)cnc2s1)c1ccn(-c2ccccc2)n1
b = O=C(Nc1ccccc1-c1nc2cc(CN3CCOCC3)cnc2s1)c1nc2ccccc2s1
**Q:** Please compare: a and b . Report which one has the smaller EC1.5 (concentration of test compound that results in 150% activation of SIRT1) value. Please indicate the selected item by its label.
**A:** b
(b: 510 NM, a: 1460 NM)

a = O=C(Nc1ccccc1-c1nc2cc(CN3CCNCC3)cnc2s1)c1cn2ccccc2n1
b = NC1CCN(Cc2cnc3sc(-c4ccccc4NC(=O)c4cccc(-c5ccccn5)c4)nc3c2)CC1
c = Cc1cc(C(=O)Nc2ccccc2-c2nc3cc(CN4CCCC4)cnc3s2)nc(-c2ccccc2)n1
**Q:** Reorder the items by EC1.5 (concentration of test compound that results in 150% activation of SIRT1), least to greatest. Field: ranking. Enter the labels in the order requested.
**A:** b, c, a
(b: 162 NM, c: 759 NM, a: 1940 NM)

1 = O=C(Nc1ccccc1-c1nc2cc(CN3CCOCC3)cnc2s1)c1cn2ccccc2n1
2 = Cc1nc(-c2cccc(C(=O)Nc3ccccc3-c3nc4cc(CN5CC[C@@H](F)C5)cnc4s3)c2)cs1
**Q:** Lab note: check whether 1 or 2 shows the higher recorded EC1.5 (concentration of test compound that results in 150% activation of SIRT1). Let me know the label of the one you choose.
**A:** 1
